Hello, the source for this data is PubChem BioAssay AID1919005, in case you need it.

Test system: 855422-203-R-J1-PDC complex spheroid growth
Assay: Anticancer human tumor 855422-203-R-J1-PDC patient-derived bladder carcinoma cell line growth inhibition [AhR]
Settings: second compound 0.316 µM; first compound 0.0316 µM; hits give low values
From the text: Multicellular complex tumor spheroid response to aryl hydrocarbon receptor antagonists in combination with a variety of drugs and investigational agents in selected tumor cell lines […] Compounds. […] If the clinical Cmax for an agent had not been determined, the highest concentration tested was 10 microM (Table 1). […]
metric: viability, T/C (%)

molecule="COc1cc(C2c3cc4c(cc3C(OC3OC5COC(C)OC5C(O)C3O)C3COC(=O)C23)OCO4)cc(OC)c1O (configuration not stated) + Cc1cncc(-c2nc(NCCc3c[nH]c4ccccc34)c3ncn(C(C)C)c3n2)c1" metric="viability, T/C" test_result=88.4
molecule="CC1(C)CCC(CN2CCN(c3ccc(C(=O)NS(=O)(=O)c4ccc(NCC5CCOCC5)c([N+](=O)[O-])c4)c(Oc4cnc5[nH]ccc5c4)c3)CC2)=C(c2ccc(Cl)cc2)C1 + Cc1ccccc1N=Nc1ccc(NC(=O)c2ccnn2C)c(C)c1" metric="viability, T/C" test_result=105
molecule="CC[C@@]1(O)C(=O)OCc2c1cc1n(c2=O)Cc2cc3c(CN(C)C)c(O)ccc3nc2-1 + Cc1ccccc1N=Nc1ccc(NC(=O)c2ccnn2C)c(C)c1" metric="viability, T/C" test_result=77.8
molecule="O=C(c1cc(Cc2n[nH]c(=O)c3ccccc23)ccc1F)N1CCN(C(=O)C2CC2)CC1 + CC(CO)NC(=O)c1cc(-c2ccc(Cl)cc2)nn(-c2cnn(C)c2)c1=O" metric="viability, T/C" test_result=118
molecule="CC1COCCN1c1cc(-c2ccnn2C)c2ccnc(-c3ccn[nH]3)c2n1 (configuration not stated) + Cc1cncc(-c2nc(NCCc3c[nH]c4ccccc34)c3ncn(C(C)C)c3n2)c1" metric="viability, T/C" test_result=74.9
molecule="Nc1ccn(C2OC(CO)C(O)C2(F)F)c(=O)n1 (configuration not stated) + Cc1cncc(-c2nc(NCCc3c[nH]c4ccccc34)c3ncn(C(C)C)c3n2)c1" metric="viability, T/C" test_result=61.6
molecule="CC[C@@]1(O)C(=O)OCc2c1cc1n(c2=O)Cc2cc3c(CN(C)C)c(O)ccc3nc2-1 + CC(CO)NC(=O)c1cc(-c2ccc(Cl)cc2)nn(-c2cnn(C)c2)c1=O" metric="viability, T/C" test_result=87.3

* * *

system: 855422-203-R-J1-PDC complex spheroid growth; experiment: Anticancer human tumor 855422-203-R-J1-PDC cell line growth inhibition [AhR]; settings: second compound 3.16 µM; first compound 0.0316 µM; hits give low values;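 note: spheroids exposed to agents for seven days before readout; percent of DMSO vehicle control luminescence viability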
Returns: string. Value is 1 if measured viability, T/C is below 90%, and 0 if it is greater than or equal to it.

compound="CC1(C)CCC(CN2CCN(c3ccc(C(=O)NS(=O)(=O)c4ccc(NCC5CCOCC5)c([N+](=O)[O-])c4)c(Oc4cnc5[nH]ccc5c4)c3)CC2)=C(c2ccc(Cl)cc2)C1 + Cc1ccccc1N=Nc1ccc(NC(=O)c2ccnn2C)c(C)c1" class_label=0
compound="Nc1ccccc1NC(=O)c1ccc(CNC(=O)OCc2cccnc2)cc1 + CC(CO)NC(=O)c1cc(-c2ccc(Cl)cc2)nn(-c2cnn(C)c2)c1=O" class_label=0
compound="COc1cc(Nc2ncc3c(n2)-c2ccc(Cl)cc2C(c2c(F)cccc2OC)=NC3)ccc1C(=O)O + Cc1cncc(-c2nc(NCCc3c[nH]c4ccccc34)c3ncn(C(C)C)c3n2)c1" class_label=1
compound="CC1COCCN1c1cc(-c2ccnn2C)c2ccnc(-c3ccn[nH]3)c2n1 (stereo not drawn) + Cc1cncc(-c2nc(NCCc3c[nH]c4ccccc34)c3ncn(C(C)C)c3n2)c1" class_label=1
compound="CC(C)c1c(-c2ccccc2)nc2c(C#N)c[nH]n2c1=O + Cc1cncc(-c2nc(NCCc3c[nH]c4ccccc34)c3ncn(C(C)C)c3n2)c1" class_label=1
compound="CC(C)c1c(-c2ccccc2)nc2c(C#N)c[nH]n2c1=O + CC(CO)NC(=O)c1cc(-c2ccc(Cl)cc2)nn(-c2cnn(C)c2)c1=O" class_label=0
compound="COc1cc(C2c3cc4c(cc3C(OC3OC5COC(C)OC5C(O)C3O)C3COC(=O)C23)OCO4)cc(OC)c1O (stereo not drawn) + Cc1cncc(-c2nc(NCCc3c[nH]c4ccccc34)c3ncn(C(C)C)c3n2)c1" class_label=1
compound="COc1ccc([C@@H](O)c2cc(-c3ncnc4cc(N5CCOCC5)ccc34)c(F)cc2Cl)nn1 + Cc1ccccc1N=Nc1ccc(NC(=O)c2ccnn2C)c(C)c1" class_label=0
compound="Nc1ccn(C2OC(CO)C(O)C2(F)F)c(=O)n1 (stereo not drawn) + Cc1ccccc1N=Nc1ccc(NC(=O)c2ccnn2C)c(C)c1" class_label=1
compound="Nc1ccccc1NC(=O)c1ccc(CNC(=O)OCc2cccnc2)cc1 + Cc1cncc(-c2nc(NCCc3c[nH]c4ccccc34)c3ncn(C(C)C)c3n2)c1" class_label=1

* * *

tested on: 855422-203-R-J1-PDC complex spheroid growth; test: Anticancer human tumor 855422-203-R-J1-PDC cell line growth inhibition [AhR]; conditions: second compound 1 µM; first compound 0.001 µM; hits give low values;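 note: spheroids exposed to agents for seven days before readout; percent of DMSO vehicle control luminescence viability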
metric: viability, T/C (%)

molecule="Cn1ncnc1C1c2n[nH]c(=O)c3cc(F)cc(c23)NC1c1ccc(F)cc1 (stereo unspecified) + CC(CO)NC(=O)c1cc(-c2ccc(Cl)cc2)nn(-c2cnn(C)c2)c1=O" test_result=105
molecule="CC[C@@]1(O)C(=O)OCc2c1cc1n(c2=O)Cc2cc3c(CN(C)C)c(O)ccc3nc2-1 + Cc1cncc(-c2nc(NCCc3c[nH]c4ccccc34)c3ncn(C(C)C)c3n2)c1" test_result=90.6
molecule="CC[C@@]1(O)C(=O)OCc2c1cc1n(c2=O)Cc2cc3c(CN(C)C)c(O)ccc3nc2-1 + Cc1ccccc1N=Nc1ccc(NC(=O)c2ccnn2C)c(C)c1" test_result=98.3
molecule="Cn1ncnc1C1c2n[nH]c(=O)c3cc(F)cc(c23)NC1c1ccc(F)cc1 (stereo unspecified) + Cc1cncc(-c2nc(NCCc3c[nH]c4ccccc34)c3ncn(C(C)C)c3n2)c1" test_result=86.2
molecule="CC[C@@]1(O)C(=O)OCc2c1cc1n(c2=O)Cc2cc3c(CN(C)C)c(O)ccc3nc2-1 + CC(CO)NC(=O)c1cc(-c2ccc(Cl)cc2)nn(-c2cnn(C)c2)c1=O" test_result=97.8
molecule="Cn1ncnc1C1c2n[nH]c(=O)c3cc(F)cc(c23)NC1c1ccc(F)cc1 (stereo unspecified) + Cc1ccccc1N=Nc1ccc(NC(=O)c2ccnn2C)c(C)c1" test_result=105

* * *

tested on: 855422-203-R-J1-PDC complex spheroid growth; assay: Anticancer human tumor 855422-203-R-J1-PDC cell line growth inhibition [AhR]; settings: second compound 0.1 µM; first compound 0.316 µM; hits give low values;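 note: spheroids exposed to agents for seven days before readout; percent of DMSO vehicle control luminescence viability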
Mark each entry Met if its viability, T/C sits below 60%, and Not met for all others.

compound="CC(C)c1c(-c2ccccc2)nc2c(C#N)c[nH]n2c1=O + Cc1cncc(-c2nc(NCCc3c[nH]c4ccccc34)c3ncn(C(C)C)c3n2)c1" class_label="Not met"
compound="NS(=O)(=O)OCC1CC(n2ccc3c(NC4CCc5ccccc54)ncnc32)CC1O (stereo unspecified) + CC(CO)NC(=O)c1cc(-c2ccc(Cl)cc2)nn(-c2cnn(C)c2)c1=O" class_label="Not met"
compound="NS(=O)(=O)OCC1CC(n2ccc3c(NC4CCc5ccccc54)ncnc32)CC1O (stereo unspecified) + Cc1ccccc1N=Nc1ccc(NC(=O)c2ccnn2C)c(C)c1" class_label="Not met"
compound="COc1ccc([C@@H](O)c2cc(-c3ncnc4cc(N5CCOCC5)ccc34)c(F)cc2Cl)nn1 + CC(CO)NC(=O)c1cc(-c2ccc(Cl)cc2)nn(-c2cnn(C)c2)c1=O" class_label="Not met"
compound="COc1cccc2c1C(=O)c1c(O)c3c(c(O)c1C2=O)CC(O)(C(=O)CO)CC3OC1CC(N)C(O)C(C)O1 (stereo unspecified) + Cc1cncc(-c2nc(NCCc3c[nH]c4ccccc34)c3ncn(C(C)C)c3n2)c1" class_label=Met
compound="NS(=O)(=O)OCC1CC(n2ccc3c(NC4CCc5ccccc54)ncnc32)CC1O (stereo unspecified) + Cc1cncc(-c2nc(NCCc3c[nH]c4ccccc34)c3ncn(C(C)C)c3n2)c1" class_label="Not met"
compound="Nc1ccn(C2OC(CO)C(O)C2(F)F)c(=O)n1 (stereo unspecified) + CC(CO)NC(=O)c1cc(-c2ccc(Cl)cc2)nn(-c2cnn(C)c2)c1=O" class_label=Met
compound="COc1cc(Nc2ncc3c(n2)-c2ccc(Cl)cc2C(c2c(F)cccc2OC)=NC3)ccc1C(=O)O + CC(CO)NC(=O)c1cc(-c2ccc(Cl)cc2)nn(-c2cnn(C)c2)c1=O" class_label="Not met"
compound="COc1cccc2c1C(=O)c1c(O)c3c(c(O)c1C2=O)CC(O)(C(=O)CO)CC3OC1CC(N)C(O)C(C)O1 (stereo unspecified) + Cc1ccccc1N=Nc1ccc(NC(=O)c2ccnn2C)c(C)c1" class_label=Met
compound="CC1(C)CCC(CN2CCN(c3ccc(C(=O)NS(=O)(=O)c4ccc(NCC5CCOCC5)c([N+](=O)[O-])c4)c(Oc4cnc5[nH]ccc5c4)c3)CC2)=C(c2ccc(Cl)cc2)C1 + Cc1ccccc1N=Nc1ccc(NC(=O)c2ccnn2C)c(C)c1" class_label="Not met"
compound="COc1cc(C2c3cc4c(cc3C(OC3OC5COC(C)OC5C(O)C3O)C3COC(=O)C23)OCO4)cc(OC)c1O (stereo unspecified) + Cc1cncc(-c2nc(NCCc3c[nH]c4ccccc34)c3ncn(C(C)C)c3n2)c1" class_label=Met
